- Tested on: A. non-baumannii isolates (n = 87)
- assay_notes: MIC, broth microdilution (EUCAST), A. non-baumannii isolates
- Type: cell-based, Acinetobacter spp. (non-baumannii)
- test_conditions: Acinetobacter pittii, isolate NO-Ab106, Acinetobacter pittii; in combinations ETZ fixed at 8 mg/L; read-out: MIC
Reported MIC values are given for each entry in this list.

Worked examples follow.
[[record]]
compound = "C[n+]1ccn(C[C@@]2(C)[C@H](C(=O)[O-])N3C(=O)C[C@H]3S2(=O)=O)n1"
recorded_measurement = "2 µg/mL"

[[record]]
compound = "C[C@@H](O)[C@H]1C(=O)N2C(C(=O)O)=C(SCCN=CN)C[C@H]12"
recorded_measurement = "≤ 0.06 µg/mL"

[[record]]
compound = "CC1(C)[C@H](C(=O)O)N2C(=O)C[C@H]2S1(=O)=O"
recorded_measurement = "0.5 µg/mL"


We next turn to a different compound, shown below.
q: # get_value(readout='MIC', item= CO/N=C(\C(=O)N[C@@H]1C(=O)N2C(C(=O)[O-])=C(C[N+]3(C)CCCC3)CS[C@H]12)c1csc(N)n1 [cefepime] )
a: 1 µg/mL

---

- Tested on: A. non-baumannii isolates (n = 87)
- assay_notes: MIC, broth microdilution (EUCAST), A. non-baumannii isolates
- Type: cell-based, Acinetobacter spp. (non-baumannii)
- test_conditions: Acinetobacter pittii, isolate NO-Ab162, Acinetobacter pittii; in combinations ETZ fixed at 8 mg/L; read-out: MIC
assay_endpoint: MIC (µg/mL)
Answer format: numeric, µg/mL implied, no suffix.

Example cases with answers are listed next.
[[record]]
compound = "CC1(C)[C@H](C(=O)O)N2C(=O)C[C@H]2S1(=O)=O"
target_or_system = "A. non-baumannii isolates (n = 87)"
recorded_measurement = 0.5

[[record]]
compound = "C[n+]1ccn(C[C@@]2(C)[C@H](C(=O)[O-])N3C(=O)C[C@H]3S2(=O)=O)n1"
target_or_system = "A. non-baumannii isolates (n = 87)"
recorded_measurement = 4


q: Data request, read-out MIC, for C[C@@H](O)[C@H]1C(=O)N2C(C(=O)O)=C(SCCN=CN)C[C@H]12
a: 0.12

q: For the compound shown here, CO/N=C(\C(=O)N[C@@H]1C(=O)N2C(C(=O)[O-])=C(C[N+]3(C)CCCC3)CS[C@H]12)c1csc(N)n1 [cefepime] , give the reported MIC.
a: 8

---

- System: A. non-baumannii isolates (n = 87)
- assay_notes: MIC, broth microdilution (EUCAST), A. non-baumannii isolates
- Format: cell-based, Acinetobacter spp. (non-baumannii)
- test_conditions: Acinetobacter calcoaceticus, isolate NO-Ab161, Acinetobacter calcoaceticus; in combinations ETZ fixed at 8 mg/L; read-out: MIC
MIC by entry:
Number in µg/mL, nothing else.

Recorded results for 3 molecules are shown here.
[[record]]
molecule = "C[n+]1ccn(C[C@@]2(C)[C@H](C(=O)[O-])N3C(=O)C[C@H]3S2(=O)=O)n1"
recorded_measurement = 8

[[record]]
molecule = "C[C@@H](O)[C@H]1C(=O)N2C(C(=O)O)=C(SCCN=CN)C[C@H]12"
recorded_measurement = 0.12

[[record]]
molecule = "CO/N=C(\\C(=O)N[C@@H]1C(=O)N2C(C(=O)[O-])=C(C[N+]3(C)CCCC3)CS[C@H]12)c1csc(N)n1 [cefepime]"
recorded_measurement = 4


// switching to the query molecule
q: Entry CC1(C)[C@H](C(=O)O)N2C(=O)C[C@H]2S1(=O)=O : reported MIC = ?
a: 4

---

- target_or_system: OXA-23 (Acinetobacter baumannii, UniProt Q9L4P2)
- Construct: GST (N); made in house; host or cells: Escherichia coli BL21
- Sequence (Q9L4P2 18-273): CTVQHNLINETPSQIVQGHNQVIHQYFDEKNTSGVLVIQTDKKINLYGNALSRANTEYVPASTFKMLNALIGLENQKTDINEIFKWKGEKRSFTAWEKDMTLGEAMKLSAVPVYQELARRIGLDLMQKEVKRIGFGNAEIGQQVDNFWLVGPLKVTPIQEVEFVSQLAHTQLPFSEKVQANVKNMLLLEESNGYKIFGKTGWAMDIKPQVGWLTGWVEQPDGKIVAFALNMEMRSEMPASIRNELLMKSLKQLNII
- assay_notes: OXA-23 inhibition assay (nitrocefin hydrolysis IC50)
- Type: biochemical
assay_endpoint: IC50 (µM)
The reply should be a number in µM, with the unit left off.

q: Returns the measured IC50 for the input molecule. Input: CC1(C)[C@H](C(=O)O)N2C(=O)C[C@H]2S1(=O)=O
a: 29.2

---

- Test system: A. non-baumannii isolates (n = 87)
- assay_notes: MIC, broth microdilution (EUCAST), A. non-baumannii isolates
- Format: cell-based, Acinetobacter spp. (non-baumannii)
- test_conditions: Acinetobacter nosocomialis, isolate NO-Ab68, Acinetobacter nosocomialis, OXA-24/40; in combinations ETZ fixed at 8 mg/L; read-out: MIC
Consider the following molecules and their measured MIC readings.
Could you give me the number in mg/L? Just the number is fine.

[[record]]
molecule = "C[C@@H](O)[C@H]1C(=O)N2C(C(=O)O)=C(SCCN=CN)C[C@H]12"
unit_tag = "mg/L"
recorded_measurement = 32

[[record]]
molecule = "CO/N=C(\\C(=O)N[C@@H]1C(=O)N2C(C(=O)[O-])=C(C[N+]3(C)CCCC3)CS[C@H]12)c1csc(N)n1 [cefepime]"
unit_tag = "mg/L"
recorded_measurement = 4

[[record]]
molecule = "CC1(C)[C@H](C(=O)O)N2C(=O)C[C@H]2S1(=O)=O"
unit_tag = "mg/L"
recorded_measurement = 1


q: Report MIC for C[n+]1ccn(C[C@@]2(C)[C@H](C(=O)[O-])N3C(=O)C[C@H]3S2(=O)=O)n1 please.
a: 16

---

- Test system: carbapenem-resistant A. baumannii (CRAB) isolates (n = 67)
- assay_notes: MIC, broth microdilution (EUCAST), carbapenem-resistant A. baumannii isolates
- Format: cell-based, Acinetobacter baumannii
- test_conditions: Acinetobacter baumannii, isolate Ab140; ST 85; ADC-2, OXA-94, OXA-23; ETZ fixed 8 mg/L in combinations
assay_endpoint: MIC (µg/mL)
Number only, in µg/mL; omit the unit.

[[record]]
molecule = "C[n+]1ccn(C[C@@]2(C)[C@H](C(=O)[O-])N3C(=O)C[C@H]3S2(=O)=O)n1"
assay_endpoint = "MIC"
recorded_measurement = 64


q: Bench note: what MIC did C[C@@H](O)[C@H]1C(=O)N2C(C(=O)O)=C(SCCN=CN)C[C@H]12 show?
a: 32

q: Using the record for CO/N=C(\C(=O)N[C@@H]1C(=O)N2C(C(=O)[O-])=C(C[N+]3(C)CCCC3)CS[C@H]12)c1csc(N)n1 [cefepime] , report its MIC.
a: 32

q: Name the recorded MIC for CC1(C)[C@H](C(=O)O)N2C(=O)C[C@H]2S1(=O)=O .
a: 16

---

- Tested on: A. non-baumannii isolates (n = 87)
- assay_notes: MIC, broth microdilution (EUCAST), A. non-baumannii isolates
- Type: cell-based, Acinetobacter spp. (non-baumannii)
- test_conditions: Acinetobacter proteolyticus, isolate NO-Ab102, Acinetobacter proteolyticus; in combinations ETZ fixed at 8 mg/L; read-out: MIC
Entries and their MIC values follow.
Give the value, in units of µg/mL, as a plain number.

[[record]]
molecule = "CO/N=C(\\C(=O)N[C@@H]1C(=O)N2C(C(=O)[O-])=C(C[N+]3(C)CCCC3)CS[C@H]12)c1csc(N)n1 [cefepime]"
assay_endpoint = "MIC"
unit_tag = "µg/mL"
recorded_measurement = 4

[[record]]
molecule = "C[C@@H](O)[C@H]1C(=O)N2C(C(=O)O)=C(SCCN=CN)C[C@H]12 [imipenem]"
assay_endpoint = "MIC"
unit_tag = "µg/mL"
recorded_measurement = 0.25

[[record]]
molecule = "C[n+]1ccn(C[C@@]2(C)[C@H](C(=O)[O-])N3C(=O)C[C@H]3S2(=O)=O)n1 [enmetazobactam]"
assay_endpoint = "MIC"
unit_tag = "µg/mL"
recorded_measurement = 4


q: Request - read-out MIC | tested on A. non-baumannii isolates (n = 87) | molecule CC1(C)[C@H](C(=O)O)N2C(=O)C[C@H]2S1(=O)=O [sulbactam]
a: 1

---

- Test system: A. non-baumannii isolates (n = 87)
- assay_notes: MIC, broth microdilution (EUCAST), A. non-baumannii isolates
- Type: cell-based, Acinetobacter spp. (non-baumannii)
- test_conditions: Acinetobacter junii, isolate NO-Ab76, Acinetobacter junii; in combinations ETZ fixed at 8 mg/L; read-out: MIC
- Protocol: The bacterial strains used in this study comprised 208 clinical isolates from the Spanish National Acinetobacter spp. […] The antimicrobial susceptibility of the 208 Acinetobacter spp. isolates was assessed using the broth microdilution method, as described in the European Committee on Antimicrobial Susceptibility Testing (EUCAST) v.15 guidelines (http://www.eucast.org/clinical_breakpoints). […] MICs for enmetazobactam alone were assessed as well. […]
Quick reference: MIC of the listed items.
Express the result in µg/mL but write the number alone.

[[record]]
compound = "CC1(C)[C@H](C(=O)O)N2C(=O)C[C@H]2S1(=O)=O"
recorded_measurement = 0.5

[[record]]
compound = "C[n+]1ccn(C[C@@]2(C)[C@H](C(=O)[O-])N3C(=O)C[C@H]3S2(=O)=O)n1"
recorded_measurement = 2


Here is another compound to look at.
q: I'd like to know its MIC. The compound in question is CO/N=C(\C(=O)N[C@@H]1C(=O)N2C(C(=O)[O-])=C(C[N+]3(C)CCCC3)CS[C@H]12)c1csc(N)n1 [cefepime]
a: 0.5
